molecular target: Cathepsin Z (Homo sapiens, UniProt Q9UBR2)
Sequence (Q9UBR2 whole entry): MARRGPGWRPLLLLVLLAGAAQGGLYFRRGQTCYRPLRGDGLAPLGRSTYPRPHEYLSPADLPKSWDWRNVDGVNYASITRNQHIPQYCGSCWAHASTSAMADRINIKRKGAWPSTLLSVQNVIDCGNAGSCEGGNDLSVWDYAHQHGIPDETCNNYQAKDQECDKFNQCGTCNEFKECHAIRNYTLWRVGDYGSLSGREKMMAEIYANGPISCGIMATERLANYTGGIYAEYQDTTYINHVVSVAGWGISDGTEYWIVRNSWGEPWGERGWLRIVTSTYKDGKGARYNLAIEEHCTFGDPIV
Readout label: Ki

Item: C[C@@H](CNc1ccc(OC(F)(F)F)cc1)NC(=O)[C@H](CS(=O)(=O)Cc1ccccc1)NC(=O)N1CCOCC1 | Ki: > 30 µM

====

Items are presented alongside their recorded Vd.
assay: Volume of distribution in Wistar rat at 3 mg/kg, iv; assay type: ADME, organism-based; parameters: dose 3 mg/kg, route intravenous; conditions: in vivo, read-out: Vdss
The reply should read as a number followed by its unit.

Item: C[C@@H](CNc1ccc(OC(F)(F)F)cc1)NC(=O)[C@H](CS(=O)(=O)Cc1ccccc1)NC(=O)N1CCOCC1 | Vd: 0.87 L/kg

Item: C[C@@H](CNc1ccc(OC(F)(F)F)cc1)NC(=O)[C@H](CC1CCCCC1)NC(=O)C1CCOC1 (stereo partly drawn) | Vd: 2.48 L/kg

Item: C[C@@H](CNc1ccc(OC(F)(F)F)cc1)NC(=O)[C@H](CC1CCCCC1)NC(=O)[C@H]1CCCO1 | Vd: 1.78 L/kg

====

Target: Cathepsin K (Homo sapiens)
Sequence (P43235 whole entry): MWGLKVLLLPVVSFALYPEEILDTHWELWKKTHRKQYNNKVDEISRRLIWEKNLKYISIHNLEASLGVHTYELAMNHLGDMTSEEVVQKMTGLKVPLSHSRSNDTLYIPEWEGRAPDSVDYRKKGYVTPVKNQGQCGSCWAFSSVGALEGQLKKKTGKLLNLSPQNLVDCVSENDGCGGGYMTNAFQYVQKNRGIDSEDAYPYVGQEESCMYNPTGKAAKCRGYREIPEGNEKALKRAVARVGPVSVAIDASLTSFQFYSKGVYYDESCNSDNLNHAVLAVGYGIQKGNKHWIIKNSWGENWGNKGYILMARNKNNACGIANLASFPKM
Items are presented alongside their recorded Ki.
Give a bare numeral; the unit µM is implied.

Item: C[C@@H](CNc1ccc(OC(F)(F)F)cc1)NC(=O)[C@H](CC1CCCCC1)NC(=O)C1CCOCC1 | Ki: 14.3

Item: O=C(N[C@@H](CC1CCCCC1)C(=O)NCCNc1ccc(OC(F)(F)F)cc1)c1ccoc1 | Ki: 9.34

====

experiment: AUC in Wistar rat at 10 mg/kg, po; type: ADME, organism-based; parameters: dose 10 mg/kg, route oral; details: plasma
Readout label: AUC (ng·h/mL)
Give a bare numeral; the unit ng·h/mL is implied.

Sample answers from the record:
| Compound | AUC (ng·h/mL) |
| --- | --- |
| C[C@@H](CNc1ccc(OC(F)(F)F)cc1)NC(=O)[C@H](CS(=O)(=O)Cc1ccccc1)NC(=O)N1CCOCC1 | 700 |
| C[C@@H](CNc1ccc(OC(F)(F)F)cc1)NC(=O)[C@H](CC1CCCCC1)NC(=O)[C@H]1CCCO1 | 1750 |
| COc1ccc(NCCNC(=O)[C@H](CC2CCCCC2)NC(=O)c2ccc(-c3cccc(C(F)(F)F)c3)o2)cc1 | 50 |

Attention now shifts to the item below.
Item: C[C@@H](CNc1ccc(OC(F)(F)F)cc1)NC(=O)[C@H](CC1CCCCC1)NC(=O)C1CCOC1 (some centres undefined) | AUC: 817

====

assay: Half life in Wistar rat at 3 mg/kg, iv; type: ADME, organism-based; set-up: dose 3 mg/kg, route intravenous; details: in vivo
Items are presented alongside their recorded half-life.
Give a bare numeral; the unit h is implied.

| Compound | half-life (h) |
| --- | --- |
| C[C@@H](CNc1ccc(OC(F)(F)F)cc1)NC(=O)[C@H](CS(=O)(=O)Cc1ccccc1)NC(=O)N1CCOCC1 | 0.817 |

Item: C[C@@H](CNc1ccc(OC(F)(F)F)cc1)NC(=O)[C@H](CC1CCCCC1)NC(=O)[C@H]1CCCO1 | half-life: 1.1

Item: C[C@@H](CNc1ccc(OC(F)(F)F)cc1)NC(=O)[C@H](CC1CCCCC1)NC(=O)C1CCOC1 (stereo partly drawn) | half-life: 1.8
